From: PubChem BioAssay (NCI)

The entries below are paired with their reported GI50.
Test system: A549 NSCLC
measurement protocol: NCI tumour cell line growth inhibition, 48 h
quantity: GI50

INSERT INTO assay_data (compound, result) VALUES
  ('C[N+](C)(C)CC1CCCc2ccccc2C1=O (stereo not given)', '18.6 µM'),
  ('N#Cc1c(NC(=O)NCc2ccccc2)sc2c1CCCCC2', '0.626 µM'),
  ('CCCCC#CC1=C(Br)C(=O)OC1', '17.2 µM'),
  ('N#Cc1c(N)nc(N2CCOCC2)c(C#N)c1-c1ccncc1', '> 100 µM'),
  ('NC(=O)/C=C/C(=O)c1c(Cl)cccc1Cl', '1.79 µM'),
  ('NC(N)=N/N=C/c1c(-c2ccsc2)nc2sccn12', '21.7 µM'),
  ('Nc1ccc([N+](=O)[O-])cc1N=C/C=C/c1ccccc1', '21.9 µM'),
  ('O=C(O)COc1ccc2c(=O)c3sc4c(=O)c5ccccc5c(=O)c4c3c(=O)c2c1', '11.2 µM'),
  ('NS(=O)(=O)c1ccc(/C=C/c2ccc(O)c(O)c2)cc1', '22.3 µM'),
  ('CCOC(=O)C1=CN(C)C=C(C(=O)OCC)C1c1cc(Br)c(OCC)c(OC)c1', '81.7 µM');
